- TEST_TARGET: T1, human ADAMTS5 (human, UniProt Q9UNA0 262-622, limits assumed)
- T1 construct: Octet and ELISA used 'recombinant human ADAMTS5'; also called recombinant human ADAMTS5; ADAMTS5 (R&D Systems 2198-AD)
- T1 sequence: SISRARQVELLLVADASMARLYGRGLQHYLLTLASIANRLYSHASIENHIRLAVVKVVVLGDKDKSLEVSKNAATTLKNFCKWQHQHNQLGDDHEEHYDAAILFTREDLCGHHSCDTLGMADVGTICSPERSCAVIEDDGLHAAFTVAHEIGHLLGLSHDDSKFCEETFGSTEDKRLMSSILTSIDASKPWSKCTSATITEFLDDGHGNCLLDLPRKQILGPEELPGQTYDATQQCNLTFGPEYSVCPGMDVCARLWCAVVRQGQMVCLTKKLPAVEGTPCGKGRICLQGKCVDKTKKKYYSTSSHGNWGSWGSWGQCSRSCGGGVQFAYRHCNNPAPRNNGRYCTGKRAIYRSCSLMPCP
- ASSAY_EXPLANATION: Octet QK, antigen down, incl avidity
READOUT: Kd (pM)
Your answer is read as pM, so omit the unit and give the number.

The examples below pair each entry with its known result.
BPC1623 (antibody, human IgG1, kappa, V domains shown, Chimeric: murine variable domains on human gamma 1 and kappa constant regions; also called 12F4 Chimera; Chimeric 12F4.1H7) VH: EVKLEESGGGLVQPGGSMKLSCTASGFTFSDAWMDWVRQSPEKGLEWVAEIRHKANDHAIFYDESVKGRFTISRDDSKNIVYLQMNSLRPEDTGIYYCTSPFAYWGQGTLVTVSS VL: DIVMTQSQKFMSVTVGDRVSITCKASQSVGTTIVWYQQKPGQSPKLLIYSASNRHTGVPDRFTGSGSGTDFILTINNVQSEDLADYFCQQYTSYPFTFGSGTKLEIKR | 43.1
12F4.1H7 (antibody, IgG2, V domains shown, also called Murine 12F4.1H7) VH: EVKLEESGGGLVQPGGSMKLSCTASGFTFSDAWMDWVRQSPEKGLEWVAEIRHKANDHAIFYDESVKGRFTISRDDSKNIVYLQMNSLRPEDTGIYYCTSPFAYWGQGTLVTVSA VL: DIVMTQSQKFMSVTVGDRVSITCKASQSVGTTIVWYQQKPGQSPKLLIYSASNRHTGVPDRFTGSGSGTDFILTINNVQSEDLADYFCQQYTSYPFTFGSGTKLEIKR | 35.6
BPC1622 (antibody, human IgG1, kappa, V domains shown, Chimeric: murine variable domains on human gamma 1 and kappa constant regions; also called 7B4 Chimera; Chimeric 7B4.1E11) VH: EVKLEESGGGLVQPGGSMKLSCAASGFTSSDAWMDWVRQSPEKGLEWVAEIRNKANNHARHYAESVKGRFTISRDDSKSSVYLQMNSLRAEDSGIYYCTRTYYYGSSYGYCDVWGTGTLVTVSS VL: DIQMTQSPASLSASVGETVTITCRTSENIYSYLAWYQQKQGKSPQLLVYNAKTLAEGVPSRFSGSGSGTQFSLKINSLQPEDFGSYSCQHHYGTPWTFGGGTKLEIKR | 260
7B4.1E11 (antibody, IgG1, V domains shown, also called Murine 7B4.1E11) VH: EVKLEESGGGLVQPGGSMKLSCAASGFTSSDAWMDWVRQSPEKGLEWVAEIRNKANNHARHYAESVKGRFTISRDDSKSSVYLQMNSLRAEDSGIYYCTRTYYYGSSYGYCDVWGTGTTVTVSS VL: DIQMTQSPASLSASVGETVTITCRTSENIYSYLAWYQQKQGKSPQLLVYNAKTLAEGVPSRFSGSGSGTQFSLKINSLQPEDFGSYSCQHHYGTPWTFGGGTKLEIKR | 280

Here is the next item to consider.
*Q* Requested read-out: Kd. Entry: BPC1634 (antibody, human IgG1, kappa, V domains shown, Humanized, human gamma 1 / kappa; also called 7B4 H0L0; Humanized 7B4.1E11 H0L0) VH: EVQLVESGGGLVQPGGSLRLSCAASGFTFSDAWMDWVRQAPGKGLEWVAEIRNKANNHARHYAESVKGRFTISRDNAKNSLYLQMNSLRAEDTAVYYCARTYYYGSSYGYCDVWGQGTLVTVSS VL: DIQMTQSPSSLSASVGDRVTITCRTSENIYSYLAWYQQKPGKAPKLLIYNAKTLAEGVPSRFSGSGSGTDFTLTISSLQPEDFATYYCQHHYGTPWTFGQGTKLEIKR
*A* 205
